Target: Human IgG (HIgG) (human)
Assay: batch adsorption isotherm, PBS pH 7.4, peptide resin 0.1 meq/g, direct Langmuir fit
pKd: −log10 of the molar value. No end group written: not given here.
Threshold check on pKd: at or above 6 gives Criterion met, strictly below gives Criterion not met.

Recorded results for 3 binders are shown here.
HFRRHLA-{Toyopearl AF‑Amino‑650 resin}	Criterion not met
YYWLHHA-{Toyopearl AF‑Amino‑650 resin}	Criterion met
HVHYYWA-{Toyopearl AF‑Amino‑650 resin}	Criterion not met

Note: attention shifts to another entry.
Test whether the binder HYFKFDA-{Toyopearl AF‑Amino‑650 resin} records pKd of 6 or higher. Criterion not met
